Provenance of the data: patent US10479766B2

- Protocol details: Pharmacokinetics in rats after oral gavage
- Type: in vivo
- Measurement context: rat, plasma, po, 10 mg/kg, PO 10 mg/kg in 100% PEG400, plasma, mean of N=3 rats, read-out: t1/2 (hr), Mean (converted)
Endpoint: half-life (h)

molecule="[2H]C([2H])([2H])C(c1cc(C(C([2H])([2H])[2H])(C([2H])([2H])[2H])C([2H])([2H])[2H])c(NC(=O)c2c[nH]c3ccccc3c2=O)cc1O)(C([2H])([2H])[2H])C([2H])([2H])[2H] [Compound 105]" endpoint=half-life measurement_units=h reported=14.8
molecule="[2H]C([2H])([2H])C(c1cc(C(C)(C)C)c(NC(=O)c2c[nH]c3ccccc3c2=O)cc1O)(C([2H])([2H])[2H])C([2H])([2H])[2H] [Compound 106]" endpoint=half-life measurement_units=h reported=13.2
molecule="CC(C)(C)c1cc(C(C)(C)C)c(NC(=O)c2c[nH]c3ccccc3c2=O)cc1O [Ivacaftor, reference compound]" endpoint=half-life measurement_units=h reported=10.5
